Where these numbers come from: ChEMBL document CHEMBL1132298

- Test system: FM3A
- measurementProtocol: Selectivity index as EC50 FM3A /EC50 Plasmodium falciparum
- Type: functional

{"columns": ["compound", "limitOperator", "Selectivity"],
 "data": [
  ["Fc1ccc(C2OOC3CCCC(c4ccc(F)cc4)(OO2)O3)cc1 (configuration not stated)", "=", 5],
  ["COc1ccc(C(=O)CCCC2OOC3CCCC(c4ccc(OC)cc4)(OO2)O3)cc1 (configuration not stated)", "=", 19],
  ["FC(F)(F)c1ccccc1C1OOC(c2ccccc2C(F)(F)F)OO1 (configuration not stated)", "=", 5],
  ["c1ccc(C2OOC3CCCC(c4ccccc4)(OO2)O3)cc1 (configuration not stated)", "=", 36],
  ["O=C(CCC[C@H]1OO[C@H](CCCC(=O)c2ccc(F)cc2)OO1)c1ccc(F)cc1", ">", 169],
  ["Fc1ccc(C23CCCC(OOC(c4ccccc4)OO2)O3)cc1 (configuration not stated)", "=", 4],
  ["O=C(CCCC1OOC2CCCC(c3ccc(F)cc3)(OO1)O2)c1ccc(F)cc1 (configuration not stated)", ">", 141],
  ["C1CCC([C@H]2OO[C@H](C3CCCCC3)OO2)CC1", "=", 55],
  ["COc1ccc(C2OOC(c3ccc(OC)cc3)OO2)cc1 (configuration not stated)", ">", 127],
  ["Fc1ccc(C2OOC3CCCC(c4ccccc4)(OO2)O3)cc1 (configuration not stated)", "=", 6],
  ["c1ccc(C[C@H]2OO[C@H](Cc3ccccc3)OO2)cc1", ">", 7],
  ["COc1ccc(C(=O)CCC[C@H]2OO[C@H](CCCC(=O)c3ccc(OC)cc3)OO2)cc1", ">", 5],
  ["CC(C)(C)C1OOC2CCCC(c3ccccc3)(OO1)O2 (configuration not stated)", "=", 2],
  ["c1ccc([C@H]2OO[C@H](c3ccccc3)OO2)cc1", ">", 91],
  ["CCC(CC)C1OOC2CCCC(c3ccccc3)(OO1)O2 (configuration not stated)", "=", 65],
  ["O=C(CCC[C@H]1OO[C@H](CCCC(=O)c2ccccc2)OO1)c1ccccc1", ">", 250],
  ["Fc1ccc(C2OOC(c3ccc(F)cc3)OO2)cc1 (configuration not stated)", ">", 200],
  ["c1ccc(C23CCCC(OOC(C4CCCCC4)OO2)O3)cc1 (configuration not stated)", "=", 48],
  ["O=C(CCC[C@H]1OO[C@@H](CCCC(=O)c2ccccc2)OO1)c1ccccc1", ">", 8],
  ["Fc1ccc(C23CCCC(OOC(C4CCCCC4)OO2)O3)cc1 (configuration not stated)", "=", 17],
  ["O=C(CCCC1OOC2CCCC(c3ccccc3)(OO1)O2)c1ccccc1 (configuration not stated)", ">", 77],
  ["CCCCCCC[C@H]1OO[C@H](CCCCCCC)OO1", ">", 67]
]}

---

Readings of pEC50 for the listed molecules
- Test system: FM3A
- measurementProtocol: In vitro cytotoxicity in mouse mammary tumor FM3A cells
- Assay type: functional, cell-based
pEC50: −log10 of the molar value.
endpointLabel: pEC50

{"columns": ["molecule", "number"],
 "data": [
  ["FC(F)(F)c1ccccc1C1OOC(c2ccccc2C(F)(F)F)OO1 (stereo not drawn)", 5.52],
  ["CCCCCCCC1OOC2CCCC(c3ccccc3)(OO1)O2 (stereo not drawn)", 4.92],
  ["Fc1ccc(C2OOC3CCCC(c4ccc(F)cc4)(OO2)O3)cc1 (stereo not drawn)", 5.05],
  ["CC(C)(C)C1OOC2CCCC(c3ccccc3)(OO1)O2 (stereo not drawn)", 4.59],
  ["Fc1ccc(C23CCCC(OOC(c4ccccc4)OO2)O3)cc1 (stereo not drawn)", 5.09],
  ["Fc1ccc(C23CCCC(OOC(C4CCCCC4)OO2)O3)cc1 (stereo not drawn)", 5.60],
  ["Fc1ccc(C2OOC3CCCC(c4ccccc4)(OO2)O3)cc1 (stereo not drawn)", 4.77],
  ["c1ccc(C23CCCC(OOC(C4CCCCC4)OO2)O3)cc1 (stereo not drawn)", 5.00],
  ["c1ccc(C2OOC3CCCC(c4ccccc4)(OO2)O3)cc1 (stereo not drawn)", 4.30],
  ["COc1ccc(C(=O)CCCC2OOC3CCCC(c4ccc(OC)cc4)(OO2)O3)cc1 (stereo not drawn)", 4.74],
  ["CCC(CC)C1OOC2CCCC(c3ccccc3)(OO1)O2 (stereo not drawn)", 4.48],
  ["C1CCC([C@H]2OO[C@H](C3CCCCC3)OO2)CC1", 4.96],
  ["C[C@@H]1CC[C@H]2[C@@H](C)C(=O)O[C@@H]3O[C@@]4(C)CC[C@@H]1[C@]32OO4", 5.00]
]}
